Listing of recorded furin cleavage Z-score by entry.
target: furin, P09958; test: furin cleavage Z-score vs untreated control; higher = more cleavage, active = 3.5 or more, inactive = 1 or less, 8 variable residues between constant flanks; conditions: 15 min;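 note: purified furin at 1:10 enzyme:substrate in 50 mM HEPES pH 7.5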
Sequence (P09958 whole entry): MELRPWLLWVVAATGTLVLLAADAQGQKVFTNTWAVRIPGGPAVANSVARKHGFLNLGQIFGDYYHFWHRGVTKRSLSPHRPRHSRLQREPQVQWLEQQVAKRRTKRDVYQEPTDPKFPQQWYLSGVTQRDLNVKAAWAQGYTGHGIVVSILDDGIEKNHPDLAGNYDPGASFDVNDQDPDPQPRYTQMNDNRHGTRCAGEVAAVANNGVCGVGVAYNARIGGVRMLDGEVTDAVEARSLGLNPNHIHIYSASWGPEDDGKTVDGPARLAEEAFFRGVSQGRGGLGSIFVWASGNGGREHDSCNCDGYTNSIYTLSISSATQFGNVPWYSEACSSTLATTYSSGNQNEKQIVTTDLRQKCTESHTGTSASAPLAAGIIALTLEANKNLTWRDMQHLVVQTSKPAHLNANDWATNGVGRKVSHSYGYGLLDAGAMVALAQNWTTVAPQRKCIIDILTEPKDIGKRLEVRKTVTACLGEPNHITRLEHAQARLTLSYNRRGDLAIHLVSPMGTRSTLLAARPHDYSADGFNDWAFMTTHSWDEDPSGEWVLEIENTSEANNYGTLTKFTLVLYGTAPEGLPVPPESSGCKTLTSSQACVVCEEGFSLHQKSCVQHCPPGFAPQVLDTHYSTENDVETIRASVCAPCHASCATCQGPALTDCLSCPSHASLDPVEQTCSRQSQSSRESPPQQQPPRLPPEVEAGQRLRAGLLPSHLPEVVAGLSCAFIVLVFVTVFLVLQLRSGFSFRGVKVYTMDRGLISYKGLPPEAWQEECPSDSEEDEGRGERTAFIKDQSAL
This is one part of the list. No count for the full screen is at hand.
Measure: furin cleavage Z-score

INSERT INTO measurements (sequence_string, observed) VALUES
  ('CAGNNTLHCPAGNASASA [HC448]', 0.103),
  ('CASTPCSAMLAGNASASA [HC2546]', 0.507),
  ('CADLCGSVFLAGNASASA [HC300]', -0.764),
  ('CAAPPRRKRRAGNASASA [FS-976]', 7.56);
